Ref: paper PMC4437580

measurement_target: Asf1-H3/H4 (Homo sapiens, UniProt Q9Y294)
Sequence (Q9Y294 1-155): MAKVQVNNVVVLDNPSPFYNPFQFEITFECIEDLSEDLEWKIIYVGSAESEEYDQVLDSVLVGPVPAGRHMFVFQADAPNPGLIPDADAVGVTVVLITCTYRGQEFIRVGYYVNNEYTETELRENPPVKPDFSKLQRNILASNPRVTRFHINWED
assay_comment: Asf1-H3/H4 binding inhibition
reported_metric: Asf1-H3/H4 binding potency/activity, in words

- compound_structure_string: "COc1cc(/C=N/NC(=O)C2CCOCC2)cc(Br)c1O"
  value: "ineffective"
- compound_structure_string: "COc1cc(/C=N/NC(=O)C2CCNCC2)cc(Br)c1O"
  value: "ineffective"
